test: Pharmacokinetics in mice (IP, IV, PO); conditions: mouse, in vivo, PO 100 mg/kg
REPORTED_PROPERTY: bioavailability (%)
Give bare numbers, in %.

Record request: bioavailability value, item C=CC(=O)Nc1cccc(C)c1Nc1cc(-c2cccnc2Nc2c(Cl)c(OC)cc(OC)c2Cl)ncn1 [Compound 5, reference compound]
8.09

---

Test: Pharmacokinetics in mice (IP, IV, PO)
Assay type: in vivo
Settings: mouse, in vivo; mice, IP 10 mg/kg
Method: FIG. 2A is the pharmacokinetic data of compound 1 administered by intraperitoneal injection (IP) into mice at 10 mg/kg, according to some embodiments of the present disclosure; FIG. 2B is the pharmacokinetic data of compound 1 administered by intravenous injection (IV) into mice at 1 mg/kg and per os (PO) at 5 mg/kg, according to some embodiments of the present disclosure;
REPORTED_PROPERTY: MRT last (h)
Answers are plain numbers, in h.

Record request: MRT last value, item C=CC(=O)Nc1cccc(C)c1Nc1cc(-c2cccnc2Nc2c(Cl)c(OC)cc(OC)c2Cl)ncn1 [Compound 5, reference compound]
1.57

With those in mind, consider the next compound.
Record request: MRT last value, item `C=CC(=O)N[C@H]1COC[C@H]1Nc1cc(-c2cccnc2Nc2c(Cl)c(OC)cc(OC)c2Cl)ncn1`
0.67

The reported numbers originate from patent US12409177B2.
